Every entry's value here was drawn from ChEMBL document CHEMBL1268951.

protocol-details: Inhibition of HIV1 Tat/TAR interaction at 1 to 400 uM by FRET based competition assay
The source made the active and inactive calls. The rule behind the calls is not given here. Where a SMILES comes first, the peptide text is derived from it.
measured-endpoint: inhibition

molecule: N=C(N)NCCC[C@H](NC(=O)[C@@H](N)CCCNC(=N)N)C(=O)N[C@@H](CCCCN)C(=O)O (H-Arg-Arg-Lys-OH)
observed-measurement: Active
//
molecule: N[C@@H](Cc1ccccc1)C(=O)NCCN(CC(=O)N[C@@H](Cc1ccccc1)C(=O)O)C(=O)[C@H](Cc1ccccc1)NC(=O)OCc1ccccc1
observed-measurement: Active
//
molecule: N=C(N)NCCC[C@H](NC(=O)[C@H](CCCNC(=N)N)NC(=O)[C@@H](N)CCCNC(=N)N)C(=O)O (H-Arg-Arg-Arg-OH)
observed-measurement: Active
//
molecule: N=C(N)NCCC[C@H](N)C(=O)NCCN(CC(=O)N[C@@H](CCCCN)C(=O)O)C(=O)[C@H](CCCCNC(=O)OCc1ccccc1)NC(=O)OCc1ccccc1
observed-measurement: Active
//
molecule: N=C(N)NCCC[C@H](N)C(=O)NCCN(CC(=O)N[C@@H](Cc1ccccc1)C(=O)O)C(=O)[C@H](Cc1ccccc1)NC(=O)OCc1ccccc1
observed-measurement: Active
//
molecule: N=C(N)NCCC[C@H](NC(=O)[C@H](CCCCN)NC(=O)[C@@H](N)CCCNC(=N)N)C(=O)O (H-Arg-Lys-Arg-OH)
observed-measurement: Active
